# tested-target: Receptor-interacting serine/threonine-protein kinase 1 (Homo sapiens, UniProt Q13546)
# Sequence (Q13546 whole entry): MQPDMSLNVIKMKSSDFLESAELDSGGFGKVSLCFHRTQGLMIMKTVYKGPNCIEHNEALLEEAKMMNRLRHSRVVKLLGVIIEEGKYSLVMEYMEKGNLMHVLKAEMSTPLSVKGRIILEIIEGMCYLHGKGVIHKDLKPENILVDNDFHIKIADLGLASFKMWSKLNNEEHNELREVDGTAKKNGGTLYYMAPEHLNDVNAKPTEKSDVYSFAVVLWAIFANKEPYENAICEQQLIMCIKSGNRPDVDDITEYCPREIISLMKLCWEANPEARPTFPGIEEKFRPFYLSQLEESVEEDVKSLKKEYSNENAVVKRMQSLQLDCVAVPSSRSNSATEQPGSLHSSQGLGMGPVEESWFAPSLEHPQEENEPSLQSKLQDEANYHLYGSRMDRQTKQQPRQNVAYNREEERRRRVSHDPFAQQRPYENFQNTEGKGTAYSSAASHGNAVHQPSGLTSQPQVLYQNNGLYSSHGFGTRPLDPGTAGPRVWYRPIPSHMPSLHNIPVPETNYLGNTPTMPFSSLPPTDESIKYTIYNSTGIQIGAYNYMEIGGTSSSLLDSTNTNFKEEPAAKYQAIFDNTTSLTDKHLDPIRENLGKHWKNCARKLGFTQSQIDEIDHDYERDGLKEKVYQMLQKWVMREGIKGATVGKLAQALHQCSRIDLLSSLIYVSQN
# test-summary: RIPK1-ADP-Glo Enzymatic Assay
pEC50: −log10 of the molar value.
assay-endpoint: pEC50

(A) Cc1csc2ncnc(N3CCC4(CC3)CN3CC[C@@H](c5cc(F)cc(F)c5)N3C4=O)c12 [US20240425524, Example 1.15]
(B) O=C1N2[C@H](c3cc(F)cc(F)c3)CCN2CC12CCN(c1cc(Cl)c(F)cn1)CC2 [US20240425524, Example 1.10]
Challenge: // compare measured pEC50 between A and B ; output the lower one Returns: label corresponding to the selected item.
Response given: A
(A: 7.77, B: 8.00)
